Quick reference for normalized growth among some molecules
assay: chemical genetic growth profiling, strain panel (AID 1159580);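 note: tested at 20 µM; growth read once vehicle control cultures reached saturation at 30 °C; 1 = growth at the plate median or of vehicle wells; lower values mean less growth of the strain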; conditions: S. cerevisiae deletion strains, growth OD, locus YHR013C, strain ard1, stronger effect = lower value
The campaign covered roughly 5,500 compounds. About 2,000 (36%) were called active. Inconclusive results (about 18%) are left out. This is one part of the list.

{"molecule": "O=c1[nH]oc2c1CCNC2", "normalized growth": 0.998}
{"molecule": "Cc1ccc(C)c(OCCCC(C)(C)C(=O)O)c1", "normalized growth": 1.02}
{"molecule": "C[C@@H]1C(=O)OC2[C@H](O)C34[C@@H]5OC(=O)[C@@]3(O[C@@H]3OC(=O)[C@H](O)[C@@]34[C@H](C(C)(C)C)[C@H]5O)[C@]21O (some centres undefined)", "normalized growth": 0.957}
{"molecule": "NS(=O)(=O)c1cc2c(cc1Cl)NC(C(Cl)Cl)NS2(=O)=O (centres undefined)", "normalized growth": 0.914}
{"molecule": "CC[C@H](C)C(=O)O[C@H]1CCC=C2C=C[C@H](C)C(CCC3C[C@@H](O)CC(=O)O3)[C@H]21 (some centres undefined)", "normalized growth": 0.947}
{"molecule": "COC(=O)[C@@H]1OC(=O)[C@H]2O[C@@]23[C@@]1(C)CCC1[C@@]2(C)CCC(=O)C(C)(C)C2C[C@@H](OC(C)=O)[C@]13C (some centres undefined)", "normalized growth": 1}
{"molecule": "CCCC(=O)O[C@]1(C(=O)CO)CCC2[C@@H]3CCC4=CC(=O)CC[C@]4(C)C3[C@@H](O)C[C@@]21C (some centres undefined)", "normalized growth": 1.01}
{"molecule": "Nc1nc2ncc(=O)[nH]c2c(=O)[nH]1", "normalized growth": 0.946}
{"molecule": "N[C@@H](CC(=O)N1CCn2c(nnc2C(F)(F)F)C1)Cc1cc(F)c(F)cc1F", "normalized growth": 0.944}

---

normalized growth values, listed per item
assay: chemical genetic growth profiling, strain panel (AID 1159580); conditions: S. cerevisiae deletion strains, growth OD, locus YJR075W, strain HOC1, stronger effect = lower value
About 2,000 (36%) of roughly 5,500 compounds were called active. Inconclusive results (about 18%) are left out. This is one part of the list.

{"molecule": "O=C(CSCc1cccc2ccccc12)NNC(=S)Nc1ccccc1Cl", "normalized growth": 0.984}
{"molecule": "O=C(O)Cc1c[nH]c2ccc(O)cc12", "normalized growth": 1.01}
{"molecule": "CC(C)C(C)/C=C/C(C)[C@H]1CCC2C3=CCC4CC(=O)CC[C@]4(C)C3CC[C@@]21C (some centres not stated)", "normalized growth": 1.03}
{"molecule": "Clc1cccc(Cl)c1NC1=NCCN1", "normalized growth": 1.01}
{"molecule": "Cc1cccc(C)c1NC1=NCCCS1", "normalized growth": 1.03}
{"molecule": "Cc1onc(-c2c(Cl)cccc2Cl)c1C(=O)Oc1ccc(Cl)c(Cl)c1", "normalized growth": 0.99}
{"molecule": "CC(C)C(C)/C=C/C(C)C1CCC2C3=CC=C4CC(O)CCC4(C)C3CCC21C (configuration not stated)", "normalized growth": 0.978}
{"molecule": "Cc1onc(-c2c(Cl)cccc2Cl)c1C(=O)OCC(F)(F)F", "normalized growth": 1}
{"molecule": "O=C(O)c1ccccc1-c1c2cc(Br)c(=O)cc-2oc2[c]([Hg])c(O)c(Br)cc12", "normalized growth": 0.946}
{"molecule": "CC(/C=N\\O)=N/Nc1ccccc1", "normalized growth": 0.954}
{"molecule": "Oc1cc2c(cc1O)CN(C(=S)NCCc1ccc(Cl)cc1)CCC2", "normalized growth": 0.718}
{"molecule": "COC(=O)c1c(-c2c(Cl)cccc2Cl)noc1NC(=O)NN1CCCCC1", "normalized growth": 1.02}

---

test: chemical genetic growth profiling, strain panel (AID 1159580);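 note: tested at 20 µM; growth read once vehicle control cultures reached saturation at 30 °C; 1 = growth at the plate median or of vehicle wells; lower values mean less growth of the strain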; conditions: S. cerevisiae deletion strains, growth OD, locus YDR195W, strain ref2
About 2,000 (36%) of roughly 5,500 compounds were called active. Roughly 18% stayed inconclusive and do not appear here. The list shows a part of the results.
The label depends only on normalized growth: 1.0 if it is at least 1, 0.0 if it is smaller.

{"molecule": "O=C1[C@H](CCC(O)c2ccc(F)cc2)[C@@H](c2ccc(O)cc2)N1c1ccc(F)cc1 (stereo partly specified)", "group_label": 0.0}
{"molecule": "CC(C)COCC(CN(Cc1ccccc1)c1ccccc1)N1CCCC1 (stereo unspecified)", "group_label": 1.0}
{"molecule": "CCOC(=O)c1ccc(O)cc1", "group_label": 1.0}

---

test: chemical genetic growth profiling, strain panel (AID 1159580);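 note: tested at 20 µM; growth read once vehicle control cultures reached saturation at 30 °C; 1 = growth at the plate median or of vehicle wells; lower values mean less growth of the strain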; settings: S. cerevisiae deletion strains, growth OD, locus YPL106C, strain sse1, stronger effect = lower value
About 2,000 (36%) of roughly 5,500 compounds were called active. Another 18% or so got no clear call; they are omitted. The list shows a part of the results.

{"molecule": "C=C1C(=O)O[C@@H]2C[C@@]3(C)CCC[C@H](C)C3=C[C@H]12", "normalized growth": 0.521}
{"molecule": "Cc1cccc(Nc2ccccc2C(=O)O)c1C", "normalized growth": 1.05}
{"molecule": "CCN(CC)C(=O)c1cccc(C)c1", "normalized growth": 1.11}
{"molecule": "O=C(Cn1ccnc1[N+](=O)[O-])NCCO", "normalized growth": 1.02}
{"molecule": "O=C1OC2(c3ccc(O)cc3Oc3cc(O)ccc32)c2ccccc21", "normalized growth": 0.987}
{"molecule": "CO/N=C(\\C(=O)N[C@@H]1C(=O)N2C(C(=O)O)=C(COC(C)=O)CS[C@H]12)c1csc(N)n1", "normalized growth": 0.963}
{"molecule": "CO/N=C(\\C(=O)NC1C(=O)N2C(C(=O)O)=C(COC(N)=O)CSC12)c1ccco1 (stereo not drawn)", "normalized growth": 0.941}
{"molecule": "Cc1c(Cl)cccc1Nc1ccccc1C(=O)O", "normalized growth": 0.985}
{"molecule": "O=c1cc[nH]c(=S)[nH]1", "normalized growth": 1}
{"molecule": "CCCCN1CCCCC1C(=O)Nc1c(C)cccc1C (stereo not drawn)", "normalized growth": 0.962}
{"molecule": "CC(C(=O)O)c1ccc(C(=O)c2cccs2)cc1 (stereo not drawn)", "normalized growth": 0.979}
{"molecule": "CC(=O)Oc1c(C)cccc1C(=O)O", "normalized growth": 1.06}
{"molecule": "CO/N=C(\\C(=O)NC1C(=O)N2C(C(=O)OC(C)OC(C)=O)=C(COC(N)=O)CSC12)c1ccco1 (stereo not drawn)", "normalized growth": 0.981}
{"molecule": "COC(=O)C(C)c1ccc(C(=O)c2cccs2)cc1 (stereo not drawn)", "normalized growth": 1.01}
{"molecule": "COC(=O)C(O)c1ccccc1 (stereo not drawn)", "normalized growth": 0.997}
{"molecule": "CC(C)(C)CC(C)(C)c1ccc(O)c(Cc2ccc(Cl)cc2Cl)c1", "normalized growth": 1.04}
{"molecule": "CO/N=C(\\C(=O)N[C@@H]1C(=O)N2C(C(=O)O)=C(CSc3nc(=O)c(O)nn3C)CS[C@H]12)c1csc(N)n1", "normalized growth": 0.917}
{"molecule": "OC(Cn1cncn1)(Cn1cncn1)c1ccc(F)cc1F", "normalized growth": 0.341}

---

assay: chemical genetic growth profiling, strain panel (AID 1159580);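 note: tested at 20 µM; growth read once vehicle control cultures reached saturation at 30 °C; 1 = growth at the plate median or of vehicle wells; lower values mean less growth of the strain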; conditions: S. cerevisiae deletion strains, growth OD, locus YMR263W, strain SAP30
About 2,000 (36%) of roughly 5,500 compounds were called active. Not shown: some 18% with an inconclusive outcome. Cut-off read from the data, not from the text of the source: active = normalized growth mostly below about 0.91 (no sharp cut-off); inconclusive = no clear call, values can overlap the other calls; inactive = mostly above about 0.92. The list shows a part of the results.
Labels: active, inactive

{"compound": "CC12NC(=O)NC1(C)NC(=O)N2 (configuration not stated)", "group_label": "inactive"}
{"compound": "Cc1ccc(CC(=O)O)cc1", "group_label": "inactive"}
{"compound": "O=c1cc[nH]c(=S)[nH]1", "group_label": "inactive"}
{"compound": "NS(=O)(=O)c1cc2c(cc1Cl)NC(C(Cl)Cl)NS2(=O)=O (configuration not stated)", "group_label": "inactive"}
{"compound": "O=[N+]([O-])c1ccc2c(c1)NC(c1ccc([N+](=O)[O-])s1)O2 (configuration not stated)", "group_label": "active"}
{"compound": "O=C(O)Cc1c[nH]c2ccc(O)cc12", "group_label": "inactive"}
{"compound": "CC(C)NC[C@H](O)COc1cccc2ccccc12", "group_label": "inactive"}
{"compound": "COC(=O)C(C)c1ccc(C(=O)c2cccs2)cc1 (configuration not stated)", "group_label": "inactive"}
{"compound": "O=C(O)c1ccccc1-c1c2cc(Br)c(=O)cc-2oc2[c]([Hg])c(O)c(Br)cc12", "group_label": "inactive"}
{"compound": "CSC(=NC#N)N1CCN(c2ccc([N+](=O)[O-])cn2)CC1", "group_label": "inactive"}
{"compound": "CC(C(=O)O)c1ccc(C(=O)c2cccs2)cc1 (configuration not stated)", "group_label": "inactive"}
{"compound": "CC1(C)C2(Cl)C(Cl)C(Cl)C(Cl)(C(Cl)Cl)C1(Cl)C2Cl (configuration not stated)", "group_label": "inactive"}
